All figures here come from paper PMC9482650.

experimental.system: T1, MPP6, Q9NZW5
T1 sequence (Q9NZW5 125-219, limits assumed, looked up): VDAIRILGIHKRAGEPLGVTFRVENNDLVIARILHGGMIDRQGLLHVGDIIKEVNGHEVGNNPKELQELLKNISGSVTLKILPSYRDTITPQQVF
test.name: holdup assay
Parameters: key: below the threshold = too weak to quantify, mostly under pKd 3.1 to 4
condition.notes: plain residues with an end cap or a label only (N-terminal biotin on a linker: ado-ado)
property: pKd

binder	result
PSHPRLQTHV [KIRREL2, Q6UWL6]	3.59
RSSGGDDFWF [KCNV1, Q6PIU1]	below the threshold
SPDRDRESIV [SCN5A, Q14524]	below the threshold
KKMLQRRTLL [OR8G1, Q15617]	below the threshold
QRPYRRGSEI [KCNJ18, B7U540]	below the threshold
GEDRSPPTAL [MKNK1, Q9BUB5]	3.59
VLYPREGTEV [FOXI1, Q12951]	below the threshold
MHIQEKGFHV [EPHA6, Q9UF33]	below the threshold
